# ASSAY SUMMARY: log P by HPLC on reversed phase columns (EEC directive 79/831 Annex V.A8)
# Type: physicochemical
# CONDITION PARAMETERS: Table 2, amines of formula (III-a); HPLC/LC-MS at pH 2.7, 0.1% formic acid in water / acetonitrile, gradient 10% to 95%
Could you please report measured logP^[a] for the items listed next?

CC1CC(=C(Cl)Cl)c2cccc(N)c21.Cl (stereo not shown)
3.60^[a]
CC1(C)CC(C(Cl)Cl)c2c(N)cccc21 (stereo not shown)
4.39^[a]
CC(C)(C)CC1CCc2cccc(N)c21.Cl (stereo not shown)
4.04^[a]
CC(C)(C)CC1CC(C)(C)c2cccc(N)c21 (stereo not shown)
4.98^[a]
CC1(C)CC(C(F)F)c2c(N)cccc21 (stereo not shown)
2.75^[a]

Hi, could you look up logP^[a] for each item in my list?
1. Cl.Nc1cccc2c1C(=C(Cl)Cl)CC2
2. CC1CC(C)(C)c2ccc(F)c(N)c21 (stereo not shown)

3.42^[a]
3.71^[a]

====

# ASSAY SUMMARY: log P by HPLC on reversed phase columns (EEC directive 79/831 Annex V.A8)
# Format: physicochemical
# CONDITION PARAMETERS: Table 1, formula (I); HPLC/LC-MS at pH 2.7, 0.1% formic acid in water / acetonitrile, gradient 10% to 95%
Could you please report measured logP^[a] for the items listed next?

CC1CC(C)(C)c2cccc(NC(=O)c3cccnc3C(F)F)c21 (stereo not drawn) [Example 1]
3.29^[a]

Hi, could you look up logP^[a] for each item in my list?
1. CC1(C)CCc2c(NC(=O)c3cccnc3C(F)F)cccc21 [Example 92]
2. CCC1OC(CC)(CC)c2cccc(NC(=O)c3cc(C)cnc3C(F)F)c21 (racemic) [Example 72]
3. CCC1(C)CC(C)c2c(NC(=O)c3ccc(Cl)nc3C(F)F)cccc21 (mixture of isomers) [Example 83]
4. Cc1cnc(C(F)F)c(C(=O)Nc2cccc3c2C(C)C(C)C3(C)C)c1 (stereo not drawn) [Example 35]
5. CCC1(CC)OC(C)c2c(NC(=O)c3cccnc3C(F)F)cccc21 (racemic) [Example 25]

1. 3.08^[a]
2. 3.52^[a]
3. 4.36^[a]
4. 3.79^[a]
5. 2.86^[a]

Hi, could you look up logP^[a] for each item in my list?
1. CC1(C)CC(C(F)F)c2c(NC(=O)c3cccnc3C(F)F)cccc21 (stereo not drawn) [Example 94]
2. CC1OC(C)(C)c2cccc(NC(=O)c3cccnc3C(F)F)c21 (racemic) [Example 12]

1: 3.15^[a]; 2: 2.11^[a]

So what's the measured logP^[a] for this one? CC(C)(C)CC1CC(C)(C)c2cccc(NC(=O)c3cccnc3C(F)F)c21 (stereo not drawn) [Example 95] 4.54^[a]

====

Could you please report measured Eff. % for the items listed next?
# System: Septoria tritici
# ASSAY SUMMARY: In vivo preventive test on Septoria tritici (leaf spot on wheat)
# CONDITION PARAMETERS: 100 ppm, preventive spray, wheat plants, grading 24 days after contamination
One number for each entry, in %.

Sample answers from the record:
CCC1Cc2c(NC(=S)c3cccnc3C(F)F)cccc2C1(C)C (stereo not shown) [Example 69]
80
CC1c2c(cccc2NC(=O)c2cccnc2C(F)F)CC1(C)C (stereo not shown) [Example 85]
79

Hi, could you look up Eff. % for each item in my list?
1. CC(C)CC1CCc2cccc(NC(=O)c3cccnc3C(F)F)c21 (stereo not shown) [Example 84]
2. CCC1OC(C)(C)c2cccc(NC(=O)c3cccnc3C(F)F)c21 (racemic) [Example 77]
3. CC(C)C1Cc2c(NC(=S)c3cccnc3C(F)F)cccc2C1(C)C (stereo not shown) [Example 65]
4. CC(C)(C)CC1CCc2cccc(NC(=O)c3cccnc3C(F)F)c21 (stereo not shown) [Example 90]
5. CC(C)C1OC(C)(C)c2cccc(NC(=O)c3cccnc3C(F)F)c21 (racemic) [Example 76]

1. 100
2. 93
3. 80
4. 96
5. 97

====

Could you please report measured logP^[a] for the items listed next?
# ASSAY SUMMARY: log P by HPLC on reversed phase columns (EEC directive 79/831 Annex V.A8)
# Type: physicochemical
# CONDITION PARAMETERS: Table 1, formula (I); HPLC/LC-MS at pH 2.7, 0.1% formic acid in water / acetonitrile, gradient 10% to 95%

Sample answers from the record:
CCCON=C1CCc2c(NC(=O)c3cccnc3C(F)F)cccc21
3.00^[a]
CCC1(CC)CC(C)c2c(NC(=O)c3cc(C)cnc3C(F)F)cccc21 (racemic)
4.31^[a]
Cc1cnc(C(F)F)c(C(=O)Nc2cccc3c2CC(C)(C)C3)c1
3.35^[a]
CCON=C1CC(C)c2c(NC(=O)c3cccnc3C(F)F)cccc21 (racemic)
2.71^[a]
CC1CC(C(C)(C)C)c2cccc(NC(=O)c3cccnc3C(F)F)c21 (mixture of isomers)
3.94^[a]
CC1CC(=C(Cl)Cl)c2cccc(NC(=O)c3cccnc3C(F)F)c21 (stereo not drawn)
3.13^[a]
CCC1(CC)OC(C(C)C)c2c(NC(=O)c3cccnc3C(F)F)cccc21 (racemic)
3.64^[a]
CC1(C)Cc2cccc(NC(=O)c3ccc(Cl)nc3C(F)F)c2C1
3.76^[a]

Lab note: next molecule to report on.
So what's the measured logP^[a] for this one? CC1CC(C)(C)c2c(Cl)ccc(NC(=O)c3cccnc3C(F)F)c21 (stereo not drawn) 3.73^[a]

====

# Tested on: Sphaerotheca fuliginea
# ASSAY SUMMARY: In vivo preventive test on Sphaerotheca fuliginea (powdery mildew on cucurbits)
# CONDITION PARAMETERS: 100 ppm, preventive spray, gherkin plants, grading 12 days after contamination
# Procedure: In Vivo Preventive Test on Sphaerotheca fuliginea (Powdery Mildew on Cucurbits) The active ingredients tested are prepared by homogenization in a mixture of acetone/tween/DMSO and then diluted with water to obtain the desired active material concentration. Gherkin plants (“Vert petit de Paris” variety), sown in starter cups on a 50/50 peat soil-pozzolana substrate and grown at 24° C., are treated at the Z11 cotyledon stage by spraying with the active ingredient prepared as described above. […]
Could you please report measured Eff. % for the items listed next?
One number for each entry, in %.

Sample answers from the record:
CCC1(CC)CC(C)c2c(NC(=O)c3cccnc3C(F)F)cccc21 (racemic)
98
CCC1OC(CC)(CC)c2cccc(NC(=O)c3cccnc3C(F)F)c21 (racemic)
100
CC(C)CC1CCc2cccc(NC(=O)c3cccnc3C(F)F)c21 (centres unmarked)
100
CCC1(C)CC(C)c2c(NC(=O)c3cccnc3C(F)F)cccc21 (mixture of isomers)
94
CC1c2c(cccc2NC(=O)c2cccnc2C(F)F)CC1(C)C (centres unmarked)
100
CCC1Cc2c(NC(=S)c3cccnc3C(F)F)cccc2C1(C)C (centres unmarked)
100
CC(C)(C)CC1CCc2cccc(NC(=O)c3cccnc3C(F)F)c21 (centres unmarked)
100
CC(C)C1OC(C)(C)c2cccc(NC(=O)c3cccnc3C(F)F)c21 (racemic)
98
CC(C)C1Cc2c(NC(=S)c3cccnc3C(F)F)cccc2C1(C)C (centres unmarked)
98
CCC1(CC)c2cccc(NC(=O)c3cccnc3C(F)F)c2CC1C (centres unmarked)
98

Lab note: next compound to report on.
So what's the measured Eff. % for this one? CCC1OC(C)(C)c2cccc(NC(=O)c3cccnc3C(F)F)c21 (racemic) 98

====

# ASSAY SUMMARY: log P by HPLC on reversed phase columns (EEC directive 79/831 Annex V.A8)
# Format: physicochemical
# CONDITION PARAMETERS: reversed phase HPLC columns; Table 1, formula (I); HPLC/LC-MS at pH 2.7, 0.1% formic acid in water / acetonitrile, gradient 10% to 95%
MEASUREMENT NAME: chromatographic logP
Numbers only.

CCC1Cc2c(NC(=S)c3cc(C)cnc3C(F)F)cccc2C1(C)C (centres unmarked) [Example 70]
4.41

Lab note: next compound to report on.
So what's the measured chromatographic logP for this one? CCC1Cc2c(NC(=O)c3cc(C)cnc3C(F)F)cccc2C1(C)C (centres unmarked) [Example 38] 4.06

====

# ASSAY SUMMARY: log P by HPLC on reversed phase columns (EEC directive 79/831 Annex V.A8)
# Format: physicochemical
# CONDITION PARAMETERS: Table 1, formula (I); HPLC/LC-MS at pH 2.7, 0.1% formic acid in water / acetonitrile, gradient 10% to 95%
MEASUREMENT NAME: logP^[a]

Sample answers from the record:
CC1CC(C)(C)c2cccc(NC(=O)c3c(C(F)F)ccnc3C(F)F)c21 (stereo not drawn) [Example 28]
3.79^[a]
Cc1cnc(C(F)F)c(C(=S)Nc2cccc3c2C(C)CC32CC2)c1 (racemic) [Example 68]
3.68^[a]
CC(C)CC1CCc2cccc(NC(=O)c3cccnc3C(F)F)c21 (stereo not drawn) [Example 84]
3.62^[a]
CCC1(C)CC(C)c2c(NC(=O)c3cccnc3C(F)F)cccc21 (mixture of isomers) [Example 81]
3.64^[a]
CC(C)(C)CC1CCc2cccc(NC(=O)c3cccnc3C(F)F)c21 (stereo not drawn) [Example 90]
3.92^[a]

Hi, could you look up logP^[a] for each item in my list?
1. O=C(Nc1cccc2c1C(=C(Cl)Cl)CC2)c1cccnc1C(F)F [Example 97]
2. Cc1cnc(C(F)F)c(C(=O)Nc2cccc3c2C(C)OC3(C)C)c1 (stereo not drawn) [Example 22]
3. CC(C)C1Cc2c(NC(=S)c3cccnc3C(F)F)cccc2C1(C)C (stereo not drawn) [Example 65]
4. CC1CC2(CC2)c2cccc(NC(=O)c3cccnc3C(F)F)c21 (racemic) [Example 42]

2.96^[a]
2.37^[a]
4.46^[a]
3.00^[a]

Numbers sourced from patent US9376391B2.
